- PROCEDURE_TEXT: viability loss of HPDE-C7K cells – cell-based, fluorescence, HTS, primary screen (AID 431);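 further: 0% = DMSO solvent wells and 100% = doxorubicin-treated wells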
- STUDY_CONDITIONS: HPDE-C7K KRASV12 cells, Alamar Blue viability, 48 h; at 10 µM; stronger effect = higher value
Screen size: about 63,000 compounds; about 1,100 (1.7%) were called active. The entries come from a sample that favours actives as a whole. Results with a measured potency or affinity are listed apart.
A collection of compounds and their measured cytotoxicity
MEASURED_QUANTITY: cytotoxicity (%)

COMPOUND: Fc1ccccc1CSc1nc2ncccc2[nH]1
RECORDED_VALUE: -2.9

COMPOUND: O=c1c2ccccc2nnn1CSc1nc2cc(Cl)ccc2c(=O)n1Cc1ccco1
RECORDED_VALUE: 6.2

COMPOUND: CC1Oc2ccccc2N(CC(=O)c2cccc(Cl)c2)C1=O (stereo unspecified)
RECORDED_VALUE: -8.4

COMPOUND: COCCN(C(=O)Cc1cccs1)c1nnc(-c2ccncc2)s1
RECORDED_VALUE: -16.9

COMPOUND: CCc1c(C)c(C#N)c2nc3ccccc3n2c1N(C)C
RECORDED_VALUE: 10.9

COMPOUND: O=C(NCc1ccccn1)C1CCC(=O)N1C1CCCC1 (stereo unspecified)
RECORDED_VALUE: 2.2

---

- PROCEDURE_TEXT: viability loss of HPDE-C7K cells – cell-based, fluorescence, HTS, primary screen (AID 431);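 further: 0% = DMSO solvent wells and 100% = doxorubicin-treated wells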
- STUDY_CONDITIONS: HPDE-C7K KRASV12 cells, Alamar Blue viability, 48 h; at 10 µM; stronger effect = higher value
Among all 63,000 compounds or so, about 1,100 (1.7%) were called active. The full list was thinned out, with actives kept by preference. Entries with a potency or affinity are not part of this list.
// reported cytotoxicity for each item listed
MEASURED_QUANTITY: cytotoxicity (%)

MOLECULE: O=C(NCCCN=C1NS(=O)(=O)c2ccccc21)c1ccc(S(=O)(=O)N2CCCCC2)cc1
RECORDED_VALUE: -14.3

MOLECULE: COc1ccc(NC(=O)N2CCn3c2nc2ccccc23)cc1
RECORDED_VALUE: -17.6

MOLECULE: COc1cccc(OCc2nc3ncc(Br)cc3[nH]2)c1
RECORDED_VALUE: 64.8

MOLECULE: CN(C1CCCCC1)S(=O)(=O)c1ccc(-n2cnnn2)cc1
RECORDED_VALUE: -13.1

MOLECULE: CC(C)C(c1nnnn1C1CCCC1)N1CCc2ccccc21 (stereo unspecified)
RECORDED_VALUE: -8.4

MOLECULE: O=C(NCc1nc2ncc(Br)cc2[nH]1)c1ccccc1
RECORDED_VALUE: -7.6

MOLECULE: COc1cccc(OCc2nc3ccccc3[nH]2)c1
RECORDED_VALUE: 10.6

MOLECULE: CCN(CCNC(=O)C1CCCN(Cc2nc(-c3ccc(OC)cc3)oc2C)C1)c1ccccc1 (stereo unspecified)
RECORDED_VALUE: 62.7

MOLECULE: CC(=O)c1ccc(NC(=O)c2noc3c2CCCCC3)cc1
RECORDED_VALUE: 16.4

MOLECULE: CCc1ccc(-c2nc(CN3CCC(C(=O)NCCN(CC)c4ccccc4)CC3)c(C)o2)cc1
RECORDED_VALUE: 39.2

MOLECULE: COc1ccc(N/C=C(\C#N)c2nc3ccccc3n2C)c(OC)c1
RECORDED_VALUE: 44.3

---

Reported values of cytotoxicity for individual entries
- PROCEDURE_TEXT: viability loss of HPDE-C7K cells – cell-based, fluorescence, HTS, primary screen (AID 431);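 further: 0% = DMSO solvent wells and 100% = doxorubicin-treated wells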
- STUDY_CONDITIONS: HPDE-C7K KRASV12 cells, Alamar Blue viability, 48 h; at 10 µM; stronger effect = higher value
The whole screen tested about 63,000 compounds, of which about 1,100 (1.7%) were called active. The list comes from a sample in which actives are over-represented; it also holds close analogues and randomly drawn compounds. Measured potencies and affinities stand elsewhere.

COMPOUND: CCOC(=O)C1CCCN(C(=O)c2cccs2)C1 (stereo unspecified)
cytotoxicity, %: 2.4
//
COMPOUND: CCn1c2ccccc2c2cc(N)ccc21
cytotoxicity, %: 22.9
//
COMPOUND: C=Cn1ccnc1P(=S)(c1ccc2c(c1)c1ccccc1n2CC)c1nccn1C=C
cytotoxicity, %: 63.9
//
COMPOUND: COCc1cc(=O)[nH]c(Nc2nc3ccc(C)cc3o2)n1
cytotoxicity, %: 50.7
//
COMPOUND: Cc1cccc(N2CCN(C(=O)CCn3c(=S)[nH]c4cc5c(cc4c3=O)OCO5)CC2C)c1 (stereo unspecified)
cytotoxicity, %: 62.5
//
COMPOUND: CCOc1ccc(NC(=O)Cn2nnc(-c3ccccc3NC(=O)CC)n2)cc1
cytotoxicity, %: 5.1
//
COMPOUND: COc1cccc(N2CCN(C(=O)CCn3c(=S)[nH]c4cc5c(cc4c3=O)OCO5)CC2)c1
cytotoxicity, %: -4.3
//
COMPOUND: CCOc1ccccc1N(CC(=O)NCc1ccc(OC)cc1)S(C)(=O)=O
cytotoxicity, %: -11.2
//
COMPOUND: COC(=O)Cc1cc(=O)[nH]c(Nc2nc3ccccc3o2)n1
cytotoxicity, %: 11.4
//
COMPOUND: Cc1ccc(C)c(NC(=O)CN(C)S(=O)(=O)c2ccc(F)cc2)c1
cytotoxicity, %: -4.8
//
COMPOUND: Oc1ccccc1-c1cc(C(F)(F)C(F)F)[nH]n1
cytotoxicity, %: -5.1

---

- PROCEDURE_TEXT: viability loss of HPDE-C7K cells – cell-based, fluorescence, HTS, primary screen (AID 431);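 further: 0% = DMSO solvent wells and 100% = doxorubicin-treated wells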
- STUDY_CONDITIONS: HPDE-C7K KRASV12 cells, Alamar Blue viability, 48 h; at 10 µM; stronger effect = higher value
The whole screen tested about 63,000 compounds, of which about 1,100 (1.7%) were called active. The list comes from a sample in which actives are over-represented; it also holds close analogues and randomly drawn compounds. Entries with a potency or affinity are not part of this list.
MEASURED_QUANTITY: cytotoxicity (%)

COMPOUND: Cc1nc(NCC2CCCO2)c2nnn(Cc3ccccc3)c2n1 (stereo unspecified)
RECORDED_VALUE: -0.3
//
COMPOUND: Cc1c(C(=O)N2CCCCC2)sc(NC(=O)C2CC2)c1C#N
RECORDED_VALUE: 2.5
//
COMPOUND: C=CCn1c(=O)c(C(=O)Nc2ccccc2C(=O)OCC)c(O)c2ccccc21
RECORDED_VALUE: -8.6
//
COMPOUND: O=C(NCc1ccc2c(c1)OCO2)c1nnc(Cc2ccc(Cl)cc2)o1
RECORDED_VALUE: 1.6
//
COMPOUND: COCCNS(=O)(=O)c1ccc2c(c1)C(=O)c1cc(S(=O)(=O)NCCOC)ccc1-2
RECORDED_VALUE: -5.8
//
COMPOUND: O=C(NCc1ccc2c(c1)OCO2)c1ccc(-c2ccc(Cl)cc2)o1
RECORDED_VALUE: 61.3
//
COMPOUND: COc1ccc(N2CCN(C(=O)CN=C3NS(=O)(=O)C(c4ccc(C)cc4)=C3C)CC2)cc1
RECORDED_VALUE: -1.4
//
COMPOUND: Cc1ccc2nc(NCCO)nc(-c3ccccc3)c2c1
RECORDED_VALUE: 16.3
//
COMPOUND: Cc1ccccc1NC(=O)c1c(F)c(F)c(F)c(F)c1F
RECORDED_VALUE: -12
//
COMPOUND: Cc1cc(NC(=O)C2CC(c3cccc(Br)c3)=NO2)no1 (stereo unspecified)
RECORDED_VALUE: -11
//
COMPOUND: O=C(O)c1cc(-c2ccccc2)nc2ccccc12
RECORDED_VALUE: 2

---

- PROCEDURE_TEXT: viability loss of HPDE-C7K cells – cell-based, fluorescence, HTS, primary screen (AID 431);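 further: 0% = DMSO solvent wells and 100% = doxorubicin-treated wells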
- STUDY_CONDITIONS: HPDE-C7K KRASV12 cells, Alamar Blue viability, 48 h; at 10 µM
About 1,100 (1.7%) of roughly 63,000 compounds were called active.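 How the source made its calls: active means compounds whose percent cytotoxicity in the single-dose primary screen, scaled between solvent and toxic-drug controls, exceeds 50; inactive means the rest.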 This excerpt belongs to a sample that is enriched for actives. Measured potencies and affinities stand elsewhere.
Outcomes: y = active, n = inactive

COMPOUND: CCOC(=O)c1ccccc1NC(=O)C1COc2ccccc2O1 (configuration not stated)
CLASS_NAME: n
--
COMPOUND: c1ccc(C2=Nn3c(nnc3-c3n[nH]c4c3CCC4)SC2)cc1
CLASS_NAME: n
--
COMPOUND: Fc1ccc(C2=Nn3c(nnc3-c3n[nH]c4c3CCC4)SC2)cc1
CLASS_NAME: n
--
COMPOUND: O=C(Nc1sccc1C(=O)N1CCOCC1)c1cccnc1
CLASS_NAME: n
--
COMPOUND: CC(=O)c1ccc(NC(=O)C2CCCNC2=O)cc1 (configuration not stated)
CLASS_NAME: n
--
COMPOUND: CCOc1cc(C(=O)N(C)c2ccccc2)cc(OCC)c1OCC
CLASS_NAME: n
--
COMPOUND: Cc1cccc(C)c1NC(=O)CSc1nnc(-c2ccoc2C)n1C
CLASS_NAME: n
--
COMPOUND: O=C(CCCC(=O)N(CC(=O)NC1CCCC1)Cc1ccc(F)cc1)Nc1ccccn1
CLASS_NAME: n
--
COMPOUND: CCOc1ccc(C(=O)Nc2cccc(-c3nc4cccnc4o3)c2)cc1Cl
CLASS_NAME: y
--
COMPOUND: Cc1nc(NC2=NCN(Cc3cccnc3)CN2)nc2ccccc12
CLASS_NAME: n
--
COMPOUND: Cc1cc2nc(NC3=NCN(Cc4ccc5c(c4)OCO5)CN3)nc(C)c2cc1C
CLASS_NAME: y
--
COMPOUND: Brc1ccc(C2=Nn3c(nnc3-c3n[nH]c4c3CCC4)SC2)cc1
CLASS_NAME: y
--
COMPOUND: CC1=CC(C)(C)N2C(=O)C3(C(C#N)=C(N)Oc4cc(O)ccc43)c3cccc1c32 (configuration not stated)
CLASS_NAME: y
--
COMPOUND: Clc1ccc(C2=Nn3c(nnc3-c3n[nH]c4c3CCC4)SC2)cc1
CLASS_NAME: n
--
COMPOUND: CCOc1cccc(C(=O)Nc2cccc(-c3nnc(-c4ccccc4)o3)c2)c1
CLASS_NAME: n
--
COMPOUND: Cn1c(-c2ccc3c(c2)OCO3)cnc1NC(=O)CCC(=O)NCCc1ccccc1
CLASS_NAME: n
--
COMPOUND: CCN(CC)c1ccc2cc(-c3nnc(-c4ccncc4)o3)c(=O)oc2c1
CLASS_NAME: y
--
COMPOUND: CC(C)(C)OC(=O)N1CCC[C@@H]1C(=O)N1CCC(C(=O)O)CC1
CLASS_NAME: n
--
COMPOUND: CCN(CC)c1ccc2cc(-c3nc4ccccc4[nH]3)c(=O)oc2c1
CLASS_NAME: n
--
COMPOUND: Cc1ccc2nc(NC3=NCN(Cc4ccc5c(c4)OCO5)CN3)nc(C)c2c1
CLASS_NAME: n
--
COMPOUND: O=C(c1cccs1)n1cc(C(=S)N2CCOCC2)c2ccccc21
CLASS_NAME: n
--
COMPOUND: Cc1cc2nc(NC3=NCN(Cc4cccnc4)CN3)nc(C)c2cc1C
CLASS_NAME: y

Reference source for all entries: PubChem BioAssay AID431
